target: interaction between PD-1 and PD-L1 (Homo sapiens (Human), UniProt Q9NZQ7)
Sequence (Q9NZQ7 19-238): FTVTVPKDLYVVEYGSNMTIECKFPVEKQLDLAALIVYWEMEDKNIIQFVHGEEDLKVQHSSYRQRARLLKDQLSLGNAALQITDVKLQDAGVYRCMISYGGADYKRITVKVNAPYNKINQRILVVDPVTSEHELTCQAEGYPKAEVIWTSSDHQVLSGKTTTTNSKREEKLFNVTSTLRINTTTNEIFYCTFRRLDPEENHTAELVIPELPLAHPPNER
experiment: Cisbio PD-1/PD-L1 binding assay kit (HTRF)
cond: molecular level, read-out: IC50 (M), inhibitory activity on the interaction between PD-1 and PD-L1
Counter-ions that a name gives are not always drawn.
measurementName: IC50 (M)

Would you please look over these solved cases?
{"compound": "CC(C)C[C@H](NCc1cc(Cl)c(OCc2cccc(-c3ccccc3)c2Br)cc1OCc1cccnc1)C(=O)O", "IC50, M": "6.1e-08"}
{"compound": "O=C(O)[C@@H](CO)NCc1cc(Cl)c(OCc2cccc(-c3ccccc3)c2Br)cc1OCc1cccnc1", "IC50, M": "4.29e-08"}
{"compound": "CCOC(=O)C(CO)NCc1cc(Cl)c(OCc2cccc(-c3ccccc3)c2Br)cc1OCc1cccnc1 (stereo not shown) [Example 1, dihydrochloride]", "IC50, M": "1.48e-07"}
{"compound": "O=C(O)CNCc1cc(Cl)c(OCc2cccc(-c3ccccc3)c2Br)cc1OCc1cccnc1", "IC50, M": "4.11e-08"}
{"compound": "C/C(=C\\C#N)NCc1cc(Cl)c(OCc2cccc(-c3ccccc3)c2Br)cc1OCc1cccnc1", "IC50, M": "2.69e-05"}

P = CC(C)C(NCc1cc(Cl)c(OCc2cccc(-c3ccccc3)c2Br)cc1OCc1cccnc1)C(=O)O (stereo not shown)
Q = CC(=O)NCCNCc1cc(Cl)c(OCc2cccc(-c3ccccc3)c2Br)cc1OCc1cccnc1
Task: Hi there! Just curious which has the higher IC50 between P and Q . Please indicate the selected item by its label.
Result: Q
(Q: 5.51e-07 M, P: 2e-07 M)

###

target: PD-L1 protein (Homo sapiens (Human))
Sequence (Q9NZQ7 19-290): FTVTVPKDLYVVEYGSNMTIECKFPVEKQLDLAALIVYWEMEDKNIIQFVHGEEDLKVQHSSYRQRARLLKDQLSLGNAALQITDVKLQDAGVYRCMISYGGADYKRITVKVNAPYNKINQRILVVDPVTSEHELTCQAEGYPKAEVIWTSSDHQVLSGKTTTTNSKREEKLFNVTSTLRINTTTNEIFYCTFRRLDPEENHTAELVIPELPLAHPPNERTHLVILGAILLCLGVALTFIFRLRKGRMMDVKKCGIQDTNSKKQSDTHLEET
experiment: Relieving the inhibition of IFNγ by ligand PD-L1 in human PBMC
cond: 72 h
measurementName: pIC50
Entry type: numeric. Quantity: pIC50, the -log10 of concentration in molar units.

Task: Form field: reported pIC50 of O=C(O)[C@H](CO)NCc1cc(Cl)c(OCc2cccc(-c3ccccc3)c2Br)cc1OCc1cccnc1
Result: 9.74

###

target: interaction between PD-1 and PD-L1 (Homo sapiens (Human))
experiment: Cisbio PD-1/PD-L1 binding assay kit (HTRF)
cond: molecular level, read-out: IC50 (M), inhibitory activity on the interaction between PD-1 and PD-L1
Structures can show the parent of a compound that is named as a salt.
measurementName: IC50 (M)

Would you please look over these solved cases?
{"compound": "CS(=O)(=O)NCCNCc1cc(Cl)c(OCc2cccc(-c3ccccc3)c2Br)cc1OCc1cccnc1", "target": "interaction between PD-1 and PD-L1 (Homo sapiens (Human))", "IC50 (M)": "1.99e-07"}
{"compound": "O=C(O)[C@H](Cc1ccc(O)cc1)NCc1cc(Cl)c(OCc2cccc(-c3ccccc3)c2Br)cc1OCc1cccnc1", "target": "interaction between PD-1 and PD-L1 (Homo sapiens (Human))", "IC50 (M)": "4.06e-07"}

1 = CC(C)OC(=O)[C@H](CO)NCc1cc(Cl)c(OCc2cccc(-c3ccccc3)c2Br)cc1OCc1cccnc1 [Example 6, dihydrochloride]
2 = CC[C@H](C)[C@H](NCc1cc(Cl)c(OCc2cccc(-c3ccccc3)c2Br)cc1OCc1cccnc1)C(=O)O
Task: Input pair: 1 , 2 . Output: entry with lower IC50. Please indicate the selected item by its label.
Result: 1

###

target: UniProt:Q9NZQ7
experiment: Interaction with PD-L1 protein tested by Biacore (SPR)
cond: unit inferred; read-out: affinity kD value
measurementName: Kd (nM)
Write it as a number; the unit nM goes unstated.

Task: Form field: reported Kd of O=C(O)[C@H](CO)NCc1cc(Cl)c(OCc2cccc(-c3ccccc3)c2Br)cc1OCc1cccnc1 [Example 4]
Result: 0.0203
